- targetUnderTest: androgen receptor (AR) splicing variant AR-v7 (Homo sapiens)
- Construct: The degradation activity of compounds on AR-v7 in 22RV1 cells; host or cells: 22RV1 cells
- Sequence (P10275 1-644 isoform P10275-3): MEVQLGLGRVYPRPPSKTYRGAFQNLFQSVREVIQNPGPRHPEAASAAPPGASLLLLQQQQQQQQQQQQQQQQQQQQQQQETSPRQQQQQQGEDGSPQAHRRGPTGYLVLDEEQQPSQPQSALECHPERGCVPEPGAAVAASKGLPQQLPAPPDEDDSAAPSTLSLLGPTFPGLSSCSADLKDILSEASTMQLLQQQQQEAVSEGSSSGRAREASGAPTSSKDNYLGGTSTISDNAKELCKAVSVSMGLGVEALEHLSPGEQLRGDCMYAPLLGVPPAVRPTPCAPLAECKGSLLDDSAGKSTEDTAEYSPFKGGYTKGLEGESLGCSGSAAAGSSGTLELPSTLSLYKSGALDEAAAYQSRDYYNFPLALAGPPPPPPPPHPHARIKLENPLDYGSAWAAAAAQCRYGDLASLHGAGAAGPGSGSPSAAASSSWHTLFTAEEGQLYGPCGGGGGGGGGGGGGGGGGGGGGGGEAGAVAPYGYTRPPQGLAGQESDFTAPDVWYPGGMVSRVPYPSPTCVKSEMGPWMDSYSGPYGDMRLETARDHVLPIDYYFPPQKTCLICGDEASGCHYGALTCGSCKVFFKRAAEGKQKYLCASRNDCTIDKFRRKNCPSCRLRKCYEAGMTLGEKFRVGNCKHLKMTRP
- assayNotes: Degradation activity on androgen receptor splicing variant AR-v7 in 22RV1 cells (ELISA)
- Assay type: cell-based
- conditionLabel: AR-v7 degradation in 22RV1 cells, 48 h, class symbols
Examples of compounds with documented DC50 follow.
observable: DC50

Cc1nnc(-c2ncc(Oc3ccc(C(C)(C)c4ccc(O[C@H]5C[C@H](Nc6ccc7c(c6)C(=O)N(C6CCC(=O)NC6=O)C7=O)C5)cc4)cc3)cn2)o1 (stereo partly shown) ... 11 to 100 nM
Cc1nc(-c2ccnc(Oc3ccc(C(C)(C)c4ccc(O[C@H]5C[C@@H](Nc6ccc7c(c6)C(=O)N(C6CCC(=O)NC6=O)C7=O)C5)cc4)cc3)c2)no1 (stereo partly shown) ... 11 to 100 nM
CC(C)(c1ccc(OCCCOCCCOCCCNc2ccc3c(c2)C(=O)N(C2CCC(=O)NC2=O)C3=O)cc1)c1ccc(OCc2ccnc(NS(C)(=O)=O)n2)cc1 (stereo not shown) ... 1000 to 5000 nM
CC(C)(c1ccc(OCCCCCCCCOCCCCNc2ccc3c(c2)C(=O)N(C2CCC(=O)NC2=O)C3=O)cc1)c1ccc(OCc2cccc(NS(C)(=O)=O)n2)cc1 (stereo not shown) ... 101 to 1000 nM
O=C1CCC(N2C(=O)c3ccc(N[C@H]4C[C@H](Oc5ccc(Cc6ccc(Oc7cnc(-n8ccnn8)nc7)cc6)cc5)C4)cc3C2=O)C(=O)N1 (stereo partly shown) [Example 520] ... 11 to 100 nM
CC(=O)c1nccc(COc2ccc(C(C)(C)c3ccc(OC[C@H](CCCl)Nc4ccc5c(c4)C(=O)N(C4CCC(=O)NC4=O)C5=O)cc3)cc2)n1 (stereo partly shown) ... < 10 nM
C[C@@H]1CN(c2nccc(COc3ccc(C(C)(C)c4ccc(O[C@H]5C[C@@H](Nc6ccc7c(c6)C(=O)N(C6CCC(=O)NC6=O)C7=O)C5)cc4)cc3)n2)[C@H](C)CN1C (stereo partly shown) ... 11 to 100 nM
CCC(CC)(c1ccc(Oc2cnc(C(C)O)cn2)cc1)c1ccc(O[C@H]2C[C@@H](Nc3ccc4c(c3)C(=O)N(C3CCC(=O)NC3=O)C4=O)C2)cc1 (stereo partly shown) ... < 10 nM
CC(C)(c1ccc(Oc2nc(N3CC4(COC4)C3)ncc2F)cc1)c1ccc(O[C@H]2C[C@H](Nc3ccc4c(c3)C(=O)N(C3CCC(=O)NC3=O)C4=O)C2)cc1 (stereo partly shown) ... 11 to 100 nM
CC(C)(c1ccc(OCc2ccnc(N3CC(N4CCC4)C3)n2)cc1)c1ccc(O[C@H]2C[C@H](Nc3ccc4c(c3)C(=O)N(C3CCC(=O)NC3=O)C4=O)C2)cc1 (stereo partly shown) ... < 10 nM
CC(C)(c1ccc(Oc2cnc(C(=O)C3CCC3)nc2)cc1)c1ccc(O[C@H]2C[C@H](Nc3ccc4c(c3)C(=O)N(C3CCC(=O)NC3=O)C4=O)C2)cc1 (stereo partly shown) ... 11 to 100 nM
Cc1nc(-c2ncc(Oc3ccc(C(C)c4ccc(O[C@H]5C[C@H](Nc6ccc7c(c6)C(=O)N(C6CCC(=O)NC6=O)C7=O)C5)cc4)cc3)cn2)no1 (stereo partly shown) [Example 99] ... < 10 nM
CC(=O)c1ccc(Oc2ccc(C3(c4ccc(O[C@H]5C[C@H](Nc6ccc7c(c6)C(=O)N(C6CCC(=O)NC6=O)C7=O)C5)cc4)CCOCC3)cc2)nn1 (stereo partly shown) ... < 10 nM
O=C1CCC(N2C(=O)c3ccc(N[C@H]4C[C@H](Oc5ccc(Oc6ccc(Oc7ncc(-n8nccn8)cn7)cc6)cc5)C4)cc3C2=O)C(=O)N1 (stereo partly shown) ... 11 to 100 nM
Cc1nc(-c2ncc(Oc3ccc(C4(c5ccc(O[C@H]6C[C@H](Nc7ccc8c(c7)C(=O)N(C7CCC(=O)NC7=O)C8=O)C6)cc5)CCCCC4)cc3)cn2)no1 (stereo partly shown) ... < 10 nM
CNc1nccc(COc2ccc(C(C)(C)c3ccc(O[C@H]4C[C@H](Nc5ccc6c(c5)C(=O)N(C5CCC(=O)NC5=O)C6=O)C4)cc3)cc2)n1 (stereo partly shown) ... < 10 nM
C=CC(c1ccc(Oc2cnc(-c3noc(C)n3)nc2)cc1)c1ccc(O[C@H]2C[C@H](Nc3ccc4c(c3)C(=O)N(C3CCC(=O)NC3=O)C4=O)C2)cc1 (stereo partly shown) ... < 10 nM
CC(C)(c1ccc(OCCNc2cccc3c2C(=O)N(C2CCC(=O)NC2=O)C3=O)cc1)c1ccc(OCc2ccnc(NS(C)(=O)=O)n2)cc1 (stereo not shown) ... 1000 to 5000 nM
O=C1CCC(N2C(=O)c3ccc(N[C@H]4C[C@@H](Oc5ccc(C6(c7ccc(OCc8ccnc(N9CC%10(COC%10)C9)n8)cc7)CCC6)cc5)C4)cc3C2=O)C(=O)N1 (stereo partly shown) ... < 10 nM
CC(C)(c1ccc(OCc2ccnc(-c3ncon3)n2)cc1)c1ccc(O[C@H]2C[C@@H](Nc3ccc4c(c3)C(=O)N(C3CCC(=O)NC3=O)C4=O)C2)cc1 (stereo partly shown) ... < 10 nM
CC(C)(O)c1ccnc(Oc2ccc(C(C)(C)c3ccc(O[C@H]4C[C@H](Nc5ccc6c(c5)C(=O)N(C5CCC(=O)NC5=O)C6=O)C4)cc3)cc2)n1 (stereo partly shown) ... < 10 nM
CC(c1ccc(Oc2cnc(-n3ccnn3)nc2)cc1)c1ccc(O[C@H]2C[C@H](Nc3ccc4c(c3)C(=O)N(C3CCC(=O)NC3=O)C4=O)C2)cc1 (stereo partly shown) ... 11 to 100 nM

Cited source: patent US20250051347A1
